Target: T1, human IL-12 (human, UniProt P29460 23-328; P29459 23-219)
T1 construct: Recombinant (Peprotech); FLAG-tagged IL-12 in the flow cytometry assays, biotinylated in the IL-12Rβ2 assay; also called hIL-12
T1 sequence 1: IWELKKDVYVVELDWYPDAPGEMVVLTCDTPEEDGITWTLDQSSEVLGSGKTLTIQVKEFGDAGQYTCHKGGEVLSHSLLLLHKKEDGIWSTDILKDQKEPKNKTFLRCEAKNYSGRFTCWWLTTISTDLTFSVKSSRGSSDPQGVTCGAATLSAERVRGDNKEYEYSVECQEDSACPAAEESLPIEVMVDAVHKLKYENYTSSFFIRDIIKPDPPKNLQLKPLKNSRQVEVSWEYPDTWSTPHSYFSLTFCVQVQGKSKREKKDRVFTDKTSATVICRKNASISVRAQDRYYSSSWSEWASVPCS
T1 sequence 2: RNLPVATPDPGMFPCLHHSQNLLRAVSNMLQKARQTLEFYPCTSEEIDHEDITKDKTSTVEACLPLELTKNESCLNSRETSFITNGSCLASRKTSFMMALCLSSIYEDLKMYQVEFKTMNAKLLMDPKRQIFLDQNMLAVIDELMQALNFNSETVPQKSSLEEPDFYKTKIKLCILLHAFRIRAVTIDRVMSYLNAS
Assay: SPR, purified scFv captured via FLAG
Measured Metric: Kd (nM)
Numbers only, in nM.

Solved entries:
{"Binder": "scFv BB-A9 (scFv, scFv-80 variant: VH T28A, T68S; not shown: proprietary C-terminal FLAG tag) scFv: QVQLVQSGAEVKKPGASVKVSCKASGYAFTDYYLHWVRQAPGQGLEWMGWIDPENGDTEYAPKFQGRVSMTTDTSTSTAYMELRSLRSDDTAVYYCNANKELRYFDVWGQGTMVTVSSGGGGSGGGGSGGGGSEIVMTQSPATLSVSPGERATLSCRASQSISINLHWYQQKPGQAPRLLIYFASQSISGIPARFSGSGSGTEFTLTISSLQSEDFAVYYCQQSNSFPLTFGGGTKVEIKR", "Units": "nM", "Kd": 0.12}
{"Binder": "scFv BU-B1 (scFv, scFv-80 variant: VH L34M; not shown: proprietary C-terminal FLAG tag) scFv: QVQLVQSGAEVKKPGASVKVSCKASGYTFTDYYMHWVRQAPGQGLEWMGWIDPENGDTEYAPKFQGRVTMTTDTSTSTAYMELRSLRSDDTAVYYCNANKELRYFDVWGQGTMVTVSSGGGGSGGGGSGGGGSEIVMTQSPATLSVSPGERATLSCRASQSISINLHWYQQKPGQAPRLLIYFASQSISGIPARFSGSGSGTEFTLTISSLQSEDFAVYYCQQSNSFPLTFGGGTKVEIKR", "Units": "nM", "Kd": 0.12}

Turning now to a further binder:
Looking up scFv AV-F11 (scFv, scFv-80 variant: VH S112P; VL I75T; not shown: proprietary C-terminal FLAG tag) scFv: QVQLVQSGAEVKKPGASVKVSCKASGYTFTDYYLHWVRQAPGQGLEWMGWIDPENGDTEYAPKFQGRVTMTTDTSTSTAYMELRSLRSDDTAVYYCNANKELRYFDVWGQGTMVTVPSGGGGSGGGGSGGGGSEIVMTQSPATLSVSPGERATLSCRASQSISINLHWYQQKPGQAPRLLIYFASQSISGIPARFSGSGSGTEFTLTTSSLQSEDFAVYYCQQSNSFPLTFGGGTKVEIKR , I see its Kd listed as 0.2

Sourced from patent US20110262445A1
